Overview of reported recovery across a group of compounds:
Assay: Caco-2 cell monolayer membrane transport assay
Settings: human, Caco-2, Recovery rate in mass, Mean, Caco-2; A-B; mean of two samples
Number only, in %; omit the unit.

Example entries begin here.
CPD SMILES	recovery [%]
CO[C@H]1C(=O)[C@]2(C)C=C[C@@H](O)[C@](CO)(OC(C)=O)[C@H]2[C@H](OC(=O)c2ccccc2)[C@]2(O)C[C@H](OC(=O)[C@H](O)[C@@H](NC(=O)c3ccccc3)c3ccccc3)C(C)=C1C2(C)C	72
CO[C@H]1C(=O)[C@]2(C)[C@@H](OC(=O)N(C)C)C[C@H]3OC[C@@]3(OC(C)=O)[C@H]2[C@H](OC(=O)c2ccccc2)[C@]2(O)C[C@H](OC(=O)[C@H](O)[C@@H](NC(=O)OC(C)(C)C)c3ccccn3)C(C)=C1C2(C)C	94.9
COC(=O)O[C@H]1C(=O)[C@]2(C)[C@@H](OC)C[C@H]3OC[C@@]3(OC(C)=O)[C@H]2[C@H](OC(=O)c2ccccc2)[C@]2(O)C[C@H](OC(=O)[C@H](O)[C@H](CC(C)C)NC(=O)OC(C)(C)C)C(C)=C1C2(C)C	70.8
CO[C@H]1C(=O)[C@]2(C)CC[C@H]3OC[C@@]3(OC(C)=O)[C@H]2[C@H](OC(=O)c2ccccc2)[C@]2(O)C[C@H](OC(=O)[C@H](O)[C@@H](NC(=O)OC(C)(C)C)c3ccccc3)C(C)=C1C2(C)C	101

Task item: Quick one: recovery for CCSC(=O)O[C@H]1C[C@H]2OC[C@@]2(OC(C)=O)[C@H]2[C@H](OC(=O)c3ccccc3)[C@]3(O)C[C@H](OC(=O)[C@H](O)[C@@H](NC(=O)N(C)C)c4ccccc4)C(C)=C([C@@H](OC)C(=O)[C@]12C)C3(C)C ?
Reply: 74.5

Task item: Quick one: recovery for CO[C@H]1C[C@H]2OC[C@@]2(OC(C)=O)[C@H]2[C@H](OC(=O)c3ccccc3)[C@]3(O)C[C@H](OC(=O)[C@H](O)[C@@H](NC(=O)OC(C)(C)C)c4ccccc4)C(C)=C([C@@H](OC(=O)N(C)C)C(=O)[C@]12C)C3(C)C ?
Reply: 89.4

Task item: Quick one: recovery for COC(=O)O[C@H]1C[C@H]2OC[C@@]2(OC(C)=O)[C@H]2[C@H](OC(=O)c3ccccc3)[C@]3(O)C[C@H](OC(=O)[C@H](O)[C@@H](NC(=O)OC(C)(C)C)c4ccccc4)C(C)=C([C@@H](OC)C(=O)[C@]12C)C3(C)C ?
Reply: 88.5

Task item: Quick one: recovery for CCSC(=O)O[C@H]1C(=O)[C@]2(C)[C@@H](OC)C[C@H]3OC[C@@]3(OC(C)=O)[C@H]2[C@H](OC(=O)c2ccccc2)[C@]2(O)C[C@H](OC(=O)[C@H](O)[C@@H](NC(=O)OC(C)(C)C)c3ccccc3)C(C)=C1C2(C)C ?
Reply: 76.5

----------
Overview of reported Papp A→B across a group of molecules:
Experiment: Caco-2 cell monolayer membrane transport assay
Settings: human, Caco-2, Papp A-B, Sample-01, Caco-2; A-B; Sample-01
Reply with the number and its unit after it.

Example entries begin here.
CPD SMILES	Papp A→B
CO[C@H]1C(=O)[C@]2(C)C=C[C@@H](O)[C@](CO)(OC(C)=O)[C@H]2[C@H](OC(=O)c2ccccc2)[C@]2(O)C[C@H](OC(=O)[C@H](O)[C@@H](NC(=O)OC(C)(C)C)c3ccccc3)C(C)=C1C2(C)C	52.8 nm/s
COC(=O)O[C@H]1C(=O)[C@]2(C)[C@@H](OC)C[C@H]3OC[C@@]3(OC(C)=O)[C@H]2[C@H](OC(=O)c2ccccc2)[C@]2(O)C[C@H](OC(=O)[C@H](O)[C@@H](NC(=O)N(C)C)c3ccccc3)C(C)=C1C2(C)C	95.3 nm/s
CO[C@H]1C[C@H]2OC[C@@]2(OC(C)=O)[C@H]2[C@H](OC(=O)c3ccccc3)[C@]3(O)C[C@H](OC(=O)[C@H](O)[C@@H](NC(=O)c4ccccc4)c4ccccc4)C(C)=C([C@@H](OC(=O)N(C)C)C(=O)[C@]12C)C3(C)C	32.1 nm/s

Now turn to the next molecule.
Task item: Quick one: Papp A→B for CO[C@H]1C[C@H]2OC[C@@]2(OC(C)=O)[C@H]2[C@H](OC(=O)c3ccccc3)[C@]3(O)C[C@H](OC(=O)[C@H](O)[C@H](CC(C)C)NC(=O)OC(C)(C)C)C(C)=C([C@@H](OC(=O)N(C)C)C(=O)[C@]12C)C3(C)C ?
Reply: 64.1 nm/s
